The reported measurements were obtained from the supplement of paper PMC11246515.

Assay name: total protein half-life in vivo (active degradation + dilution); higher = more stable protein
Conditions: wild type E. coli NCM3722; growth: P-lim chemostat; doubling time 6 h
Recorded total protein half-life in vivo, one value per entry.
Measurement label: total protein half-life in vivo (h)

INSERT INTO measurements (sequence_chain, readout_value) VALUES
  ('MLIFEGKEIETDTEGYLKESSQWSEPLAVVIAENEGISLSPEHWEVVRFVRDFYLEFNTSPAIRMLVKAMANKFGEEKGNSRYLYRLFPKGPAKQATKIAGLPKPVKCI [P0AB18]', 4.73),
  ('MVKLPPLSLYIHIPWCVQKCPYCDFNSHALKGEVPHDDYVQHLLNDLDNDVAYAQGREVKTIFIGGGTPSLLSGPAMQTLLDGVRARLPLAADAEITMEANPGTVEADRFVDYQRAGVNRISIGVQSFSEEKLKRLGRIHGPQEAKRAAKLASGLGLRSFNLDLMHGLPDQSLEEALGDLRQAIELNPPHLSWYQLTIEPNTLFGSRPPVLPDDDALWDIFEQGHQLLTAAGYQQYETSAYAKPGYQCQHNLNYWRFGDYIGIGCGAHGKVTFPDGRILRTTKTRHPRGFMQGRYLESQRDVEATDKPFEFFMNRFRLLEAAPRVEFIAYTGLCEDVIRPQLDEAIAQGYLTECADYWQITEHGKLFLNSLLELFLAE', 5.41),
  ('MMQHQVNVSARFNPETLERVLRVVRHRGFHVCSMNMAAASDAQNINIELTVASPRSVDLLFSQLNKLVDVAHVAICQSTTTSQQIRA [P0ADG1]', 0.343),
  ('MKKWSRHLLAAGALALGMSAAHADDNNTLYFYNWTEYVPPGLLEQFTKETGIKVIYSTYESNETMYAKLKTYKDGAYDLVVPSTYYVDKMRKEGMIQKIDKSKLTNFSNLDPDMLNKPFDPNNDYSIPYIWGATAIGVNGDAVDPKSVTSWADLWKPEYKGSLLLTDDAREVFQMALRKLGYSGNTTDPKEIEAAYNELKKLMPNVAAFNSDNPANPYMEGEVNLGMIWNGSAFVARQAGTPIDVVWPKEGGIFWMDSLAIPANAKNKEGALKLINFLLRPDVAKQVAETIGYPTPNLAARKLLSPEVANDKTLYPDAETIKNGEWQNDVGAASSIYEEYYQKLKAGR [P0AFK9]', 5.59),
  ('MSESLHLTRNGSILEITLDRPKANAIDAKTSFEMGEVFLNFRDDPQLRVAIITGAGEKFFSAGWDLKAAAEGEAPDADFGPGGFAGLTEIFNLDKPVIAAVNGYAFGGGFELALAADFIVCADNASFALPEAKLGIVPDSGGVLRLPKILPPAIVNEMVMTGRRMGAEEALRWGIVNRVVSQAELMDNARELAQQLVNSAPLAIAALKEIYRTTSEMPVEEAYRYIRSGVLKHYPSVLHSEDAIEGPLAFAEKRDPVWKGR', 5.25),
  ('MIYPDEAMLYAPVEWHDCSEGFEDIRYEKSTDGIAKITINRPQVRNAFRPLTVKEMIQALADARYDDNIGVIILTGAGDKAFCSGGDQKVRGDYGGYKDDSGVHHLNVLDFQRQIRTCPKPVVAMVAGYSIGGGHVLHMMCDLTIAADNAIFGQTGPKVGSFDGGWGASYMARIVGQKKAREIWFLCRQYDAKQALDMGLVNTVVPLADLEKETVRWCREMLQNSPMALRCLKAALNADCDGQAGLQELAGNATMLFYMTEEGQEGRNAFNQKRQPDFSKFKRNP [P0ABU0]', 5.58);
